System: rodent lifetime carcinogenesis bioassay, tumor incidence TD50
Experiment: carcinogenic potency in animals, long-term in vivo studies, CPDB compilation (AID 1745844)
Settings: mouse; strain B6C3F1; males; in feed; site: liver; lesion: hepatocellular adenoma; dosed 105 weeks; study length 105 weeks
endpoint-name: TD50

State the recorded TD50 for this entry: Brc1cc(Br)c(-c2cc(Br)c(Br)cc2Br)cc1Br 0.233 mg/kg/day

====

System: rodent lifetime carcinogenesis bioassay, tumor incidence TD50
Experiment: carcinogenic potency in animals, long-term in vivo studies, CPDB compilation (AID 1745844)
Settings: mouse; strain B6C3F1; females; inhaled; site: ovary; lesion: adenoma; dosed 83 weeks; study length 104 weeks
endpoint-name: TD50 (mg/kg/day)
Expressed in mg/kg/day, but write only the number.

Tell me the measured TD50 of C=CC=C , please. 217
